Experiment: Growth inhibition of human Hs 578T cells after 48 hrs by coulter counting analysis
Type: functional
Some compounds, each annotated with its measured GI50.

>  <SMILES_ENTRY>
COc1c2ccoc2c(/C=C/C=O)c2oc(-c3ccccc3)cc(=O)c12

>  <GI50>
7.2 µM

$$$$
>  <SMILES_ENTRY>
COc1ccccc1/C=C/C(=O)c1c(O)cc2occc2c1OC

>  <GI50>
38.2 µM

$$$$
>  <SMILES_ENTRY>
C=CCc1c(O)c(C(=O)/C=C/c2ccc(Cl)cc2)c(OC)c2ccoc12

>  <GI50>
4.02 µM

$$$$

----------
// values below are reported inhibition of growth at 10 µM
Assay: Growth inhibition of human UO31 cells at 10 uM after 48 hrs by sulforhodamine B assay relative to control
Assay type: functional
Settings: UO-31, 48 h, read-out: GI

>  <SMILES_ENTRY>
C=CCOc1cc2oc(-c3ccc(Cl)cc3)cc(=O)c2c(OC)c1C=O

>  <RESULT_UNITS>
%

>  <inhibition of growth at 10 µM>
74

$$$$
>  <SMILES_ENTRY>
COc1c(C(=O)/C=C/c2ccccc2)c(O)cc2occc12

>  <RESULT_UNITS>
%

>  <inhibition of growth at 10 µM>
60

$$$$
>  <SMILES_ENTRY>
COc1c2occc2c(OC)c2c(=O)c(CN3CCOCC3)c(/C=C/c3ccc(Cl)cc3)oc12

>  <RESULT_UNITS>
%

>  <inhibition of growth at 10 µM>
61

$$$$
>  <SMILES_ENTRY>
COc1ccc(-c2cc(=O)c3c(OC)c4ccoc4cc3o2)cc1

>  <RESULT_UNITS>
%

>  <inhibition of growth at 10 µM>
62

$$$$
>  <SMILES_ENTRY>
COc1c2occc2c(OC)c2c(=O)c(CN3CCOCC3)c(/C=C/c3ccc(N(C)C)cc3)oc12

>  <RESULT_UNITS>
%

>  <inhibition of growth at 10 µM>
63

$$$$

----------
Target: Cyclin-dependent kinase 2/cyclin E1 (Homo sapiens) (UniProt P24864+P24941)
Experiment: Inhibition of CDK2/Cyclin E1 (unknown origin) at 20 uM after 30 mins by scintillation counting analysis relative to control
Format: protein-complex assay

>  <SMILES_ENTRY>
COc1c2ccoc2c(/C=C/C=O)c2oc(-c3ccccc3)cc(=O)c12

>  <inhibition, %>
6

$$$$
>  <SMILES_ENTRY>
C=CCc1c(O)c(C(=O)/C=C/c2ccccc2)c(OC)c2ccoc12

>  <inhibition, %>
0

$$$$
>  <SMILES_ENTRY>
C=CCc1c(O)c(C(=O)/C=C/c2ccc(Cl)cc2)c(OC)c2ccoc12

>  <inhibition, %>
3

$$$$
>  <SMILES_ENTRY>
COc1c2occc2c(OC)c2c(=O)c(CN3CCOCC3)c(/C=C/c3ccc(N(C)C)cc3)oc12

>  <inhibition, %>
0

$$$$
>  <SMILES_ENTRY>
COc1c(C(=O)/C=C/c2ccccc2)c(O)cc2occc12

>  <inhibition, %>
1

$$$$

----------
Target: Cyclin-dependent kinase 2/cyclin E1 (Homo sapiens) (UniProt P24864+P24941)
Assay: Inhibition of CDK2/Cyclin E1 (unknown origin) at 20 uM after 30 mins by scintillation counting analysis relative to control
Type: protein-complex assay
PROPERTY_NAME: inhibition (%)

>  <SMILES_ENTRY>
COc1c(C(=O)/C=C/c2ccc(Cl)cc2)c(O)c(Br)c2occc12

>  <RESULT_UNITS>
%

>  <READING>
5

$$$$
>  <SMILES_ENTRY>
COc1c2occc2c(OC)c2c(=O)c(CN3CCOCC3)c(/C=C/c3ccc(Cl)cc3)oc12

>  <RESULT_UNITS>
%

>  <READING>
0

$$$$
>  <SMILES_ENTRY>
COc1ccccc1/C=C/C(=O)c1c(O)cc2occc2c1OC

>  <RESULT_UNITS>
%

>  <READING>
6

$$$$
>  <SMILES_ENTRY>
COc1ccc(-c2cc(=O)c3c(OC)c4ccoc4c(/C=C/C=O)c3o2)cc1

>  <RESULT_UNITS>
%

>  <READING>
0

$$$$
>  <SMILES_ENTRY>
C=CCc1c2c(c(OC)c3ccoc13)C(=O)/C(=C/c1ccccc1OC)O2

>  <RESULT_UNITS>
%

>  <READING>
0

$$$$

----------
Measured GI50 values are reported for all entries that follow.
System: SK-OV-3
Assay: Growth inhibition of human SKOV3 cells after 48 hrs by coulter counting analysis
Type: functional
Conditions: SK-OV-3, 48 h
PROPERTY_NAME: GI50 (µM)

>  <SMILES_ENTRY>
COc1c(C(=O)/C=C/c2ccc(Cl)cc2)c(O)c(Br)c2occc12

>  <READING>
1.11

$$$$
>  <SMILES_ENTRY>
C=CCc1c(O)c(C(=O)/C=C/c2ccccc2)c(OC)c2ccoc12

>  <READING>
8.08

$$$$
>  <SMILES_ENTRY>
COc1ccc(-c2cc(=O)c3c(OC)c4ccoc4c(/C=C/C=O)c3o2)cc1

>  <READING>
4.73

$$$$
>  <SMILES_ENTRY>
C=CCc1c(O)c(C(=O)/C=C/c2ccc(Cl)cc2)c(OC)c2ccoc12

>  <READING>
5.96

$$$$
>  <SMILES_ENTRY>
COc1ccccc1/C=C/C(=O)c1c(O)cc2occc2c1OC

>  <READING>
21.3

$$$$

----------
# GI50 listing for each entry below
Assay: Growth inhibition of human MOLT4 cells after 48 hrs by coulter counting analysis
Assay type: functional
Conditions: MOLT-4, 48 h

>  <SMILES_ENTRY>
COc1ccc(-c2cc(=O)c3c(OC)c4ccoc4c(/C=C/C=O)c3o2)cc1

>  <RESULT_UNITS>
nM

>  <GI50>
1840

$$$$
>  <SMILES_ENTRY>
COc1c2occc2c(OC)c2c(=O)c(CN3CCOCC3)c(/C=C/c3ccc(N(C)C)cc3)oc12

>  <RESULT_UNITS>
nM

>  <GI50>
1580

$$$$
>  <SMILES_ENTRY>
COc1c2occc2c(OC)c2c(=O)c(CN3CCOCC3)c(/C=C/c3ccc(Cl)cc3)oc12

>  <RESULT_UNITS>
nM

>  <GI50>
2840

$$$$
>  <SMILES_ENTRY>
COc1c(C(=O)/C=C/c2ccc(Cl)cc2)c(O)c(Br)c2occc12

>  <RESULT_UNITS>
nM

>  <GI50>
2090

$$$$
>  <SMILES_ENTRY>
C=CCc1c(O)c(C(=O)/C=C/c2ccccc2)c(OC)c2ccoc12

>  <RESULT_UNITS>
nM

>  <GI50>
2170

$$$$
>  <SMILES_ENTRY>
COc1c(C(=O)/C=C/c2ccccc2)c(O)cc2occc12

>  <RESULT_UNITS>
nM

>  <GI50>
3360

$$$$
>  <SMILES_ENTRY>
C=CCc1c2c(c(OC)c3ccoc13)C(=O)/C(=C/c1ccccc1OC)O2

>  <RESULT_UNITS>
nM

>  <GI50>
3520

$$$$
>  <SMILES_ENTRY>
C=CCc1c(O)c(C(=O)/C=C/c2ccc(Cl)cc2)c(OC)c2ccoc12

>  <RESULT_UNITS>
nM

>  <GI50>
2610

$$$$
>  <SMILES_ENTRY>
COc1c2ccoc2c(/C=C/C=O)c2oc(-c3ccccc3)cc(=O)c12

>  <RESULT_UNITS>
nM

>  <GI50>
2060

$$$$

----------
Attribute: GI50
System: MDA-MB-231
Assay: Growth inhibition of human MDA-MB-231 cells after 48 hrs by coulter counting analysis
Format: functional
Settings: MDA-MB-231, 48 h
PROPERTY_NAME: GI50 (µM)

>  <SMILES_ENTRY>
C=CCc1c2c(c(OC)c3ccoc13)C(=O)/C(=C/c1ccccc1OC)O2

>  <PROPERTY_NAME>
GI50

>  <READING>
4.59

$$$$
>  <SMILES_ENTRY>
COc1c2ccoc2c(/C=C/C=O)c2oc(-c3ccccc3)cc(=O)c12

>  <PROPERTY_NAME>
GI50

>  <READING>
4.1

$$$$
>  <SMILES_ENTRY>
COc1c(C(=O)/C=C/c2ccc(Cl)cc2)c(O)c(Br)c2occc12

>  <PROPERTY_NAME>
GI50

>  <READING>
4.33

$$$$
>  <SMILES_ENTRY>
C=CCc1c(O)c(C(=O)/C=C/c2ccc(Cl)cc2)c(OC)c2ccoc12

>  <PROPERTY_NAME>
GI50

>  <READING>
4.3

$$$$
>  <SMILES_ENTRY>
COc1c2occc2c(OC)c2c(=O)c(CN3CCOCC3)c(/C=C/c3ccc(Cl)cc3)oc12

>  <PROPERTY_NAME>
GI50

>  <READING>
2.92

$$$$
>  <SMILES_ENTRY>
COc1ccccc1/C=C/C(=O)c1c(O)cc2occc2c1OC

>  <PROPERTY_NAME>
GI50

>  <READING>
33.1

$$$$
>  <SMILES_ENTRY>
COc1ccc(-c2cc(=O)c3c(OC)c4ccoc4c(/C=C/C=O)c3o2)cc1

>  <PROPERTY_NAME>
GI50

>  <READING>
4.22

$$$$
>  <SMILES_ENTRY>
C=CCc1c(O)c(C(=O)/C=C/c2ccccc2)c(OC)c2ccoc12

>  <PROPERTY_NAME>
GI50

>  <READING>
3.11

$$$$
>  <SMILES_ENTRY>
COc1c2occc2c(OC)c2c(=O)c(CN3CCOCC3)c(/C=C/c3ccc(N(C)C)cc3)oc12

>  <PROPERTY_NAME>
GI50

>  <READING>
2.22

$$$$
>  <SMILES_ENTRY>
COc1c(C(=O)/C=C/c2ccccc2)c(O)cc2occc12

>  <PROPERTY_NAME>
GI50

>  <READING>
4.38

$$$$
